// reported INHIBITION for each item listed
Tested on: Plasmodium berghei
test: Screen against P. berghei liver stage (PbLuc), transformed with Luciferase, at 10uM
Format: functional, HepG2
stated conditions: tested at 10 uM
The whole screen tested about 69,000 compounds, of which about 8,600 (12%) showed an effect of 50% or more. The full list was thinned out, with strong results kept by preference.
value kind: INHIBITION (%)

- molecule: "CN(C)C(=O)N1CCC2(CC(=O)N(c3ccc4c(c3)OCO4)C2)C1 (configuration not stated)"
  measured target: "Plasmodium berghei"
  value kind: "INHIBITION"
  reported result: -4.02
- molecule: "C[C@@H]1CN(Cc2cc(C(F)(F)F)ccc2F)CC[C@@]1(O)C1CC1"
  measured target: "Plasmodium berghei"
  value kind: "INHIBITION"
  reported result: -45
- molecule: "CCOc1ccc(Cl)c(C(=O)N2CCN(CC(O)CC)CC2)n1 (configuration not stated)"
  measured target: "Plasmodium berghei"
  value kind: "INHIBITION"
  reported result: 14.1
- molecule: "Cn1nnc2c(N3CC(C(=O)NCc4ccccc4F)C3)ncnc21"
  measured target: "Plasmodium berghei"
  value kind: "INHIBITION"
  reported result: 15.7
- molecule: "COc1cc(CN2CC[C@H](NC(C)=O)[C@@H](O)CC2)ccc1F"
  measured target: "Plasmodium berghei"
  value kind: "INHIBITION"
  reported result: -13.7
- molecule: "CC(=O)N1[C@H](CN(C)C)C[C@@H]2CN(C(=O)c3ccno3)CC[C@@H]21"
  measured target: "Plasmodium berghei"
  value kind: "INHIBITION"
  reported result: 17.4
- molecule: "O=C(c1ccc(Cn2cc(Br)cn2)cc1)N1CCCC1"
  measured target: "Plasmodium berghei"
  value kind: "INHIBITION"
  reported result: 53.5
- molecule: "COCC(=O)N1CCC2(C1)c1ccccc1S(=O)(=O)N2CC1CC1 (configuration not stated)"
  measured target: "Plasmodium berghei"
  value kind: "INHIBITION"
  reported result: 17.6
- molecule: "COc1cc(F)c(CN2CC[C@@](O)(C3CC3)[C@H](C)C2)cc1OC"
  measured target: "Plasmodium berghei"
  value kind: "INHIBITION"
  reported result: -39.2
- molecule: "COc1c(C2CCCN2C(=O)c2ccc(C(N)=O)s2)c(C)nn1C (configuration not stated)"
  measured target: "Plasmodium berghei"
  value kind: "INHIBITION"
  reported result: 2.93
- molecule: "Cc1n[nH]c(C2CN(CC(=O)NCc3sccc3C)CCO2)n1 (configuration not stated)"
  measured target: "Plasmodium berghei"
  value kind: "INHIBITION"
  reported result: -7.36
- molecule: "CN1CCN(Cc2cn3c(n2)CN(Cc2cccc(F)c2)CC3)CC1"
  measured target: "Plasmodium berghei"
  value kind: "INHIBITION"
  reported result: 27.6
- molecule: "CNC(=O)[C@@]12CCO[C@@H]1CCN(S(=O)(=O)c1cc(C)cc(C)c1)C2"
  measured target: "Plasmodium berghei"
  value kind: "INHIBITION"
  reported result: 54.4
- molecule: "Cc1nn(C)c2c(NCc3ccccn3)nc(C(C)C)nc12"
  measured target: "Plasmodium berghei"
  value kind: "INHIBITION"
  reported result: 33.7
- molecule: "CC(=O)N1CCC2(C1)c1ccccc1S(=O)(=O)N2C (configuration not stated)"
  measured target: "Plasmodium berghei"
  value kind: "INHIBITION"
  reported result: 50.4
- molecule: "COCCN1C[C@@H]2CN(Cc3cccc(F)c3)CCC[C@]2(C(=O)O)C1"
  measured target: "Plasmodium berghei"
  value kind: "INHIBITION"
  reported result: -1.64
- molecule: "CC(=O)N1CCC2(C1)c1ccccc1S(=O)(=O)N2Cc1ccccc1 (configuration not stated)"
  measured target: "Plasmodium berghei"
  value kind: "INHIBITION"
  reported result: 6.72
